The origin of these recorded values is patent US20070098781A1.

# method_summary: Triple-cannulated cynomolgus monkey model: plasma PK after site-specific delivery
# Assay type: in vivo
# study_conditions: plasma, po, 5 mg/kg, 5 mg/kg in solution, dosing region stomach (gavage)
property_name: AUC (ng·h/mL)
Express your answer in ng·h/mL, writing the number without its unit.

Quick check: AUC of CC(C)(CCn1cnc(-c2cccnc2)c1)NCC(=O)N1CCC[C@H]1C#N ?
2280

###

# method_summary: Triple-cannulated cynomolgus monkey model: plasma PK after site-specific delivery
# Format: in vivo
# study_conditions: plasma, 5 mg/kg, 5 mg/kg in solution, dosing region ileum-jejunum junction (cannula)
property_name: AUC (ng·h/mL)
Express your answer in ng·h/mL, writing the number without its unit.

Quick check: AUC of CC(C)(CCn1cnc(-c2cccnc2)c1)NCC(=O)N1CCC[C@H]1C#N ?
1350

###

# method_summary: Pharmacoscintigraphic evaluation of regional drug absorption: plasma pharmacokinetics after site-specific gastrointestinal delivery (Enterion capsule)
# Type: in vivo, human
# study_conditions: both sexes, human, plasma, oral, 400 mg, healthy volunteers, dosing region colon, read-out: Mean (SD) AUC
property_name: AUC
Reply with the number and its unit after it.

Quick check: AUC of CS(=O)(=O)O.Cc1oc(-c2ccccc2)nc1CCNCC(=O)N1CCC[C@H]1C#N ?
3540 ng·h/mL

###

# method_summary: Pharmacoscintigraphic evaluation of regional drug absorption: plasma pharmacokinetics after site-specific gastrointestinal delivery (Enterion capsule)
# Assay type: in vivo, human
# study_conditions: both sexes, human, plasma, oral, 400 mg, healthy volunteers, dosing region colon, read-out: Mean (SD) Cmax
property_name: Cmax (µg/mL)
Express your answer in µg/mL, writing the number without its unit.

Quick check: Cmax of CS(=O)(=O)O.Cc1oc(-c2ccccc2)nc1CCNCC(=O)N1CCC[C@H]1C#N ?
0.736

###

# method_summary: Pharmacoscintigraphic evaluation of regional drug absorption: plasma pharmacokinetics after site-specific gastrointestinal delivery (Enterion capsule)
# Type: in vivo, human
# study_conditions: both sexes, human, plasma, oral, 400 mg, healthy volunteers, dosing region ileum, read-out: Mean (SD) Cmax
property_name: Cmax (ng/mL)
Express your answer in ng/mL, writing the number without its unit.

Quick check: Cmax of CS(=O)(=O)O.Cc1oc(-c2ccccc2)nc1CCNCC(=O)N1CCC[C@H]1C#N ?
5420

###

# method_summary: Pharmacoscintigraphic evaluation of regional drug absorption: plasma pharmacokinetics after site-specific gastrointestinal delivery (Enterion capsule)
# Assay type: in vivo, human
# study_conditions: both sexes, human, plasma, oral, 400 mg, healthy volunteers, dosing region ileum, read-out: Mean (SD) AUC
property_name: AUC

Quick check: AUC of CS(=O)(=O)O.Cc1oc(-c2ccccc2)nc1CCNCC(=O)N1CCC[C@H]1C#N ?
12300 ng·h/mL
